Reported values of remaining activity at 10 µM for individual entries
# targetDesc: recombinant human MAO-B (Homo sapiens)
# Construct: purchased Sigma-Aldrich
# Sequence (P27338 whole entry): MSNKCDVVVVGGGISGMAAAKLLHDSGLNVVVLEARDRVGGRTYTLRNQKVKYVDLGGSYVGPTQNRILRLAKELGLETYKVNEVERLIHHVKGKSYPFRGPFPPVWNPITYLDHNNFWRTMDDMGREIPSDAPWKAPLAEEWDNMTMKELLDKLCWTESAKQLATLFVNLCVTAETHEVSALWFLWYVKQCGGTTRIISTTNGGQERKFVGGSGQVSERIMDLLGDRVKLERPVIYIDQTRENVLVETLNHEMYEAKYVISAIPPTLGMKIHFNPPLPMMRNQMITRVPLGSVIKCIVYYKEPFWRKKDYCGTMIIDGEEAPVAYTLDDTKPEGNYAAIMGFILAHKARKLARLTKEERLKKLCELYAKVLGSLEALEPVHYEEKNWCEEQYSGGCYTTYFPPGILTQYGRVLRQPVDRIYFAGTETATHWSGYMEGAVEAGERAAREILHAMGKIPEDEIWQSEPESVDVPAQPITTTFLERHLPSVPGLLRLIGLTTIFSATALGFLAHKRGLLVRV
# protocolNotes: biochemical
# Assay type: biochemical
# conditionParameters: read-out: Residual Activity at 10 µM (%) MAO-B
recordedMetric: remaining activity at 10 µM (%)

compound="O=C1C[C@@H](c2ccc(O[C@@H]3O[C@H](CO)[C@@H](O)[C@H](O)[C@H]3O)cc2)Oc2cc(O)ccc21 [Liquiritin, liquiritin]" targetdesc="recombinant human MAO-B (Homo sapiens)" quantitativereadout=90.2
compound="COc1c(CC=C(C)C)c(O)cc2oc(=O)c3c4ccc(O)cc4oc3c12 [GC, glycyrol]" targetdesc="recombinant human MAO-B (Homo sapiens)" quantitativereadout=74.2
compound="O=C(/C=C/c1ccc(O[C@@H]2O[C@H](CO)[C@@H](O)[C@H](O)[C@H]2O)cc1)c1ccc(O)cc1O [Isoliquiritin, isoliquiritin]" targetdesc="recombinant human MAO-B (Homo sapiens)" quantitativereadout=75.4
compound="O=C1C[C@@H](c2ccc(O)cc2)Oc2cc(O)ccc21 [LG, Liquiritigenin]" targetdesc="recombinant human MAO-B (Homo sapiens)" quantitativereadout=0

* * *

# targetDesc: recombinant human MAO-A (Homo sapiens)
# Construct: purchased Sigma-Aldrich
# Sequence (P21397 whole entry): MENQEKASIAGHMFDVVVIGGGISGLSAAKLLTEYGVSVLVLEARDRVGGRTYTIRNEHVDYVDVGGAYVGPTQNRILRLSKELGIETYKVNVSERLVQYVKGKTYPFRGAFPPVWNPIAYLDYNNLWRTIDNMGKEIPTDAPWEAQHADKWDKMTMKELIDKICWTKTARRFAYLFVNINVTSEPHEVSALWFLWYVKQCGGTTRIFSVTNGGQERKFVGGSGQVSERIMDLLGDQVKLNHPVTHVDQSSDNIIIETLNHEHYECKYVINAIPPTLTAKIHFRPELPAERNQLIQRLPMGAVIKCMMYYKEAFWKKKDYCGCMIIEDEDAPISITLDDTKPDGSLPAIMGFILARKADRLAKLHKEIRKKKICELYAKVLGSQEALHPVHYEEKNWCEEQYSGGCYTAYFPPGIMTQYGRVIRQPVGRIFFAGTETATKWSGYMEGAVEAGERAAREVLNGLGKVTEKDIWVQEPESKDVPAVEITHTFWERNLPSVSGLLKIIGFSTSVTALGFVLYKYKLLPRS
# protocolNotes: biochemical
# Type: biochemical
# conditionParameters: read-out: Residual Activity at 10 µM (%) MAO-A
The entries below are paired with their reported remaining activity at 10 µM.
recordedMetric: remaining activity at 10 µM (%)

molecule="O=C1C[C@@H](c2ccc(O)cc2)Oc2cc(O)ccc21 [LG, Liquiritigenin]" quantitativereadout=0.46
molecule="O=C1C[C@@H](c2ccc(O[C@@H]3O[C@H](CO)[C@@H](O)[C@H](O)[C@H]3O)cc2)Oc2cc(O)ccc21 [Liquiritin, liquiritin]" quantitativereadout=93.5
molecule="O=C(/C=C/c1ccc(O[C@@H]2O[C@H](CO)[C@@H](O)[C@H](O)[C@H]2O)cc1)c1ccc(O)cc1O [Isoliquiritin, isoliquiritin]" quantitativereadout=81.8
molecule="COc1c(CC=C(C)C)c(O)cc2oc(=O)c3c4ccc(O)cc4oc3c12 [GC, glycyrol]" quantitativereadout=70.5
